// cross-study collection: pKi for UniProtKB Q9UM73
pKi: −log10 of the molar value.
Short version: pKi at least 8 is true, less is false.

>>> class("CN1CCN(c2ccc(Nc3cc(Cc4ccc5ccccc5c4)cnc3C(N)=O)cc2)CC1")
"false"
>>> class("COc1cc(C(=O)NCCN2CCN(C)CC2)ccc1Nc1cc(Cc2c(Cl)cccc2Cl)nc2cc[nH]c(=O)c12")
"false"
>>> class("COc1cc(N2CCNCC2)ccc1Nc1nc(Nc2c(F)cc(F)cc2Cl)cc2cnnc(O)c12")
"true"
>>> class("COc1cc(N2CCNCC2)ccc1Nc1nc(Nc2cc(Cl)ccc2Cl)cc2cn[nH]c(=O)c12")
"true"
>>> class("COc1cc(N2CCNCC2)ccc1Nc1cc(Cc2c(Cl)cccc2Cl)nc2c1C(=O)NCCN2")
"false"
>>> class("O=C1NCCNc2nc(Cc3c(Cl)cccc3Cl)cc(Nc3ccc(N4CCNCC4)cc3)c21")
"false"
>>> class("O=c1[nH]ncc2cc(Cc3c(Cl)cccc3Cl)nc(Nc3ccc(N4CCNCC4)cc3Cl)c12")
"true"
>>> class("COc1cc(N2CCNCC2)ccc1Nc1nc(Nc2ccccc2Cl)cc2cn[nH]c(=O)c12")
"true"
